experiment: Flowability test (particle and powder characteristic analyzer, FT-102D)
Assay type: physicochemical
recorded.endpoint: Angle of repose

molecule="O=C[C@H](O)[C@@H](O)[C@@H](O)CO [Example 11, L-arabinose]" assay_result=34.29
molecule="O=C[C@H](O)[C@@H](O)[C@@H](O)CO [Example 10 batch 1, L-arabinose]" assay_result=40.01
molecule="O=C[C@H](O)[C@@H](O)[C@@H](O)CO [Example 10 batch 2, L-arabinose]" assay_result=30.95
molecule="O=C[C@H](O)[C@@H](O)[C@@H](O)CO [Example 2, L-arabinose]" assay_result=38.95
molecule="O=C[C@H](O)[C@@H](O)[C@@H](O)CO [Example 12, L-arabinose]" assay_result=39.74
molecule="O=C[C@H](O)[C@@H](O)[C@@H](O)CO [Example 3, L-arabinose]" assay_result=38.76

* * *

experiment: Flowability test (particle and powder characteristic analyzer, FT-102D)
Type: physicochemical
Catalogue of Carr flowability index values
recorded.endpoint: Carr flowability index

compound="O[C@@H]1[C@@H](O)[C@@H](O)CO[C@H]1O [Commercial product (T1)]" assay_result=79
compound="O=C[C@H](O)[C@@H](O)[C@@H](O)CO [Example 11, L-arabinose]" assay_result=102.0
compound="O[C@@H]1[C@@H](O)[C@@H](O)CO[C@H]1O [Commercial product (Y1)]" assay_result=79
compound="O=C[C@H](O)[C@@H](O)[C@@H](O)CO [Example 3, L-arabinose]" assay_result=99
compound="O=C[C@H](O)[C@@H](O)[C@@H](O)CO [Example 2, L-arabinose]" assay_result=102.5
compound="O=C[C@H](O)[C@@H](O)[C@@H](O)CO [Example 10 batch 2, L-arabinose]" assay_result=102.5
compound="O=C[C@H](O)[C@@H](O)[C@@H](O)CO [Example 12, L-arabinose]" assay_result=99

* * *

experiment: Granularity distribution of sample (standard sieve)
Assay type: physicochemical
test.context: Example 8 samples, seed crystal specification and fed-batch time varied
recorded.endpoint: Granularity distribution of sample (standard sieve) <80 mesh (%)

compound="O[C@@H]1[C@@H](O)[C@@H](O)CO[C@H]1O [No. 5]" u=% assay_result=3
compound="O[C@@H]1[C@@H](O)[C@@H](O)OC[C@@H]1O [Example 1, β-L-(+)-arabinose]" u=% assay_result=5.4

* * *

experiment: Flowability test (particle and powder characteristic analyzer, FT-102D)
Assay type: physicochemical
Sorting guide: entries reporting Bulk density beneath 0.6 go in the fulfilled pile, the rest go in the not fulfilled pile.

compound="O=C[C@H](O)[C@@H](O)[C@@H](O)CO [Example 3, L-arabinose]" discrete_label=fulfilled
compound="O=C[C@H](O)[C@@H](O)[C@@H](O)CO [Example 10 batch 2, L-arabinose]" discrete_label="not fulfilled"
compound="O=C[C@H](O)[C@@H](O)[C@@H](O)CO [Example 10 batch 1, L-arabinose]" discrete_label="not fulfilled"
compound="O=C[C@H](O)[C@@H](O)[C@@H](O)CO [Example 11, L-arabinose]" discrete_label=fulfilled
compound="O=C[C@H](O)[C@@H](O)[C@@H](O)CO [Example 12, L-arabinose]" discrete_label=fulfilled

* * *

experiment: Flowability test (particle and powder characteristic analyzer, FT-102D)
Type: physicochemical
recorded.endpoint: Flowability (Hausner ratio)

compound="O[C@@H]1[C@@H](O)[C@@H](O)CO[C@H]1O [Commercial product (Y1)]" assay_result="Very poor"
compound="O[C@@H]1[C@@H](O)[C@@H](O)CO[C@H]1O [Commercial product (T1)]" assay_result="Very poor"
compound="O=C[C@H](O)[C@@H](O)[C@@H](O)CO [Example 3, L-arabinose]" assay_result=Good
compound="O=C[C@H](O)[C@@H](O)[C@@H](O)CO [Example 10 batch 1, L-arabinose]" assay_result=Good

* * *

experiment: Flowability test (particle and powder characteristic analyzer, FT-102D)
Format: physicochemical
recorded.endpoint: Floodability index

compound="O[C@@H]1[C@@H](O)[C@@H](O)OC[C@@H]1O [Example 1, β-L-(+)-arabinose]" assay_result=75.0
compound="O=C[C@H](O)[C@@H](O)[C@@H](O)CO [Example 11, L-arabinose]" assay_result=75.0
compound="O=C[C@H](O)[C@@H](O)[C@@H](O)CO [Example 3, L-arabinose]" assay_result=75.0
compound="O[C@@H]1[C@@H](O)[C@@H](O)CO[C@H]1O [Commercial product (Y1)]" assay_result=75
compound="O=C[C@H](O)[C@@H](O)[C@@H](O)CO [Example 2, L-arabinose]" assay_result=75.0
compound="O=C[C@H](O)[C@@H](O)[C@@H](O)CO [Example 10 batch 1, L-arabinose]" assay_result=75.0
compound="O[C@@H]1[C@@H](O)[C@@H](O)CO[C@H]1O [Commercial product (T1)]" assay_result=75
compound="O=C[C@H](O)[C@@H](O)[C@@H](O)CO [Example 12, L-arabinose]" assay_result=75.0
compound="O=C[C@H](O)[C@@H](O)[C@@H](O)CO [Example 10 batch 2, L-arabinose]" assay_result=75.0

* * *

experiment: Particle size parameter test (BT-2900 image particle size analysis system)
Assay type: physicochemical
test.context: quantity distribution, image particle size analysis
Description: Example 4. Particle Size Parameters and Powder Characteristics (Quantity Distribution) of L-Arabinose
Category scheme (D10): low-valued: < 40 μm; mid-valued: ≥ 40 μm and < 80 μm; high-valued: ≥ 80 μm

compound="O=C[C@H](O)[C@@H](O)[C@@H](O)CO [Example 11, L-arabinose]" discrete_label=high-valued
compound="O=C[C@H](O)[C@@H](O)[C@@H](O)CO [Example 12, L-arabinose]" discrete_label=high-valued
compound="O[C@@H]1[C@@H](O)[C@@H](O)OC[C@@H]1O [Example 1, β-L-(+)-arabinose]" discrete_label=mid-valued
compound="O=C[C@H](O)[C@@H](O)[C@@H](O)CO [Example 3, L-arabinose]" discrete_label=mid-valued
compound="O[C@@H]1[C@@H](O)[C@@H](O)CO[C@H]1O [Commercial product (T1)]" discrete_label=low-valued
compound="O[C@@H]1[C@@H](O)[C@@H](O)CO[C@H]1O [Commercial product (Y1)]" discrete_label=low-valued

* * *

Catalogue of 20-80 mesh proportion of sample values
experiment: Granularity distribution of sample (standard sieve)
Type: physicochemical
test.context: post-centrifugation sampling-manual material spreading and drying oven drying
recorded.endpoint: 20-80 mesh proportion of sample

compound="O=C[C@H](O)[C@@H](O)[C@@H](O)CO [Example 12, L-arabinose]" assay_result=93.57%
compound="O=C[C@H](O)[C@@H](O)[C@@H](O)CO [Example 10 batch 1, L-arabinose]" assay_result=93.0%
compound="O=C[C@H](O)[C@@H](O)[C@@H](O)CO [Example 11, L-arabinose]" assay_result=90.6%
compound="O=C[C@H](O)[C@@H](O)[C@@H](O)CO [Example 10 batch 2, L-arabinose]" assay_result=96.4%
compound="O=C[C@H](O)[C@@H](O)[C@@H](O)CO [Example 14, L-arabinose]" assay_result=94.3%

* * *

experiment: Flowability test (particle and powder characteristic analyzer, FT-102D)
Type: physicochemical
Excerpt: Example 4. Particle Size Parameters and Powder Characteristics (Quantity Distribution) of L-Arabinose Example 13. Performance Test Results for the Granules of the Present Disclosure
Catalogue of Tap density values
recorded.endpoint: Tap density

compound="O=C[C@H](O)[C@@H](O)[C@@H](O)CO [Example 10 batch 1, L-arabinose]" recorded_endpoint="Tap density" assay_result=0.85
compound="O=C[C@H](O)[C@@H](O)[C@@H](O)CO [Example 11, L-arabinose]" recorded_endpoint="Tap density" assay_result=0.65
compound="O=C[C@H](O)[C@@H](O)[C@@H](O)CO [Example 10 batch 2, L-arabinose]" recorded_endpoint="Tap density" assay_result=0.81
compound="O=C[C@H](O)[C@@H](O)[C@@H](O)CO [Example 2, L-arabinose]" recorded_endpoint="Tap density" assay_result=0.76
compound="O=C[C@H](O)[C@@H](O)[C@@H](O)CO [Example 12, L-arabinose]" recorded_endpoint="Tap density" assay_result=0.64
compound="O=C[C@H](O)[C@@H](O)[C@@H](O)CO [Example 3, L-arabinose]" recorded_endpoint="Tap density" assay_result=0.74

* * *

experiment: Granularity distribution of sample (standard sieve)
Assay type: physicochemical
test.context: Example 8 samples, seed crystal specification and fed-batch time varied
recorded.endpoint: Granularity distribution of sample (standard sieve) 20-80 mesh

molecule="O=C[C@H](O)[C@@H](O)[C@@H](O)CO [Example 3, L-arabinose]" assay_result=81.6
molecule="O=C[C@H](O)[C@@H](O)[C@@H](O)CO [Example 2, L-arabinose]" assay_result=61

* * *

experiment: Granularity distribution of sample (standard sieve)
Assay type: physicochemical
test.context: Example 8 samples, seed crystal specification and fed-batch time varied
Catalogue of Granularity distribution of sample (standard sieve) >20 mesh values
recorded.endpoint: Granularity distribution of sample (standard sieve) >20 mesh (%)

molecule="O[C@@H]1[C@@H](O)[C@@H](O)OC[C@@H]1O [Example 1, β-L-(+)-arabinose]" assay_result=23.4
molecule=O[C@@H]1[C@@H](O)[C@@H](O)CO[C@H]1O assay_result=7.3
